Test system: P. aeruginosa
test-method-notes: Minimal inhibitory concentration (MIC), modified CLSI broth microdilution in CAA or CAA/HuS
Assay type: cell-based, Pseudomonas aeruginosa
assay-context: CAA supplemented with 25% human serum
Consider the following molecules; for each one, report its MIC (μg/mL in CAA/HuS).
// return numeric value only (unit: µg/mL, not printed)

Name the recorded MIC (μg/mL in CAA/HuS) for GN54: Modified GN4, N-terminal peptide KRKKRKKRK with linker, SEQ ID NO: 8 (protein) KRKKRKKRKAGAGAGAGAGAGAGAGASMRTSQRGIDLIKSFEGLRLSAYQDSVGVWTIGYGTTRGVTRYMTITVEQAERMLSNDIQRFEPELDRLAKVPLNQNQWDALMSFVYNLGAANLASSTLLKLLNKGDYQGAADQFPRWVNAGGKRLDGLVKRRAAERALFLEPLS . 2

Name the recorded MIC (μg/mL in CAA/HuS) for GN10: Native lysin, GenBank YP_002600773.1, SEQ ID NO: 22 (protein, Pseudomonas phage phi2954) MSKQGGVKVAQAVAALSSPGLKIDGIVGKATRAAVSSMPSSQKAATDKILQSAGIGSLDSLLAEPAAATSDTFREVVLAVAREARKRGLNPAFYVAHIALETGWGRSVPKLPDGRSSYNYAGLKYAAVKTQVKGKTETNTLEYIKSLPKTVRDSFAVFASAGDFSRVYFWYLLDSPSAYRYPGLKNAKTAQEFGDILQKGGYATDPAYAAKVASIASTAVARYGSDVSSVA . 16

Name the recorded MIC (μg/mL in CAA/HuS) for GN9: Native lysin, GenBank ECJ78460.1, SEQ ID NO: 21 (protein, Marine metagenome) MKNFNEIIEHVLKHEGGYVNDPKDLGGETKYGITKRFYPDLDIKNLTIEQATEIYKKDYWDKNKVESLPQNLWHIYFDMCVNMGKRTAVKVLQRAAVNRGRDIEVDGGLGPATIGALKGVELDRVRAFRVKYYVDLITARPEQEKFYLGWFRRATEV . 2

Name the recorded MIC (μg/mL in CAA/HuS) for GN146: Modified GN4, amino acid substitutions (K99D, R115H), SEQ ID NO: 4 (protein) MRTSQRGIDLIKSFEGLRLSAYQDSVGVWTIGYGTTRGVTRYMTITVEQAERMLSNDIQRFEPELDRLAKVPLNQNQWDALMSFVYNLGAANLASSTLLDLLNKGDYQGAADQFPHWVNAGGKRLDGLVKRRAAERALFLEPLS . 2

Name the recorded MIC (μg/mL in CAA/HuS) for GN92: Modified GN4, N-terminal peptide KFFKFFKFFK with linker, SEQ ID NO: 7 (protein) KFFKFFKFFKAGAGAGAGAGAGAGAGASMRTSQRGIDLIKSFEGLRLSAYQDSVGVWTIGYGTTRGVTRYMTITVEQAERMLSNDIQRFEPELDRLAKVPLNQNQWDALMSFVYNLGAANLASSTLLKLLNKGDYQGAADQFPRWVNAGGKRLDGLVKRRAAERALFLEPLS . 4
